test-method-notes: in vitro
run-parameters: human
Items are presented alongside their recorded CC50.
attribute-measured: CC50

compound | attribute-measured | assay-value
C[C@]12CC[C@H](NC(=O)CNCCO)C[C@H]1CC[C@@H]1[C@@H]2CC[C@]2(C)[C@@H](C3=CC(=O)OC3)CC[C@]12O [C10] | CC50 | > 5 µM
C[C@]12CC[C@H](NC(=O)CO)C[C@H]1CC[C@@H]1[C@@H]2CC[C@]2(C)[C@@H](C3=CC(=O)OC3)CC[C@]12O [C11] | CC50 | > 5 µM

###

Tested on: influenza A virus (strain A/WSN/33 (H1N1))
run-parameters: read-out: IC50 IAV (Strain WSN/33 (H1N1)), A549 cells
attribute-measured: IC50

smiles-code | attribute-measured | assay-value
C[C@]12CC[C@H](NC(=O)CNCCO)C[C@H]1CC[C@@H]1[C@@H]2CC[C@]2(C)[C@@H](C3=CC(=O)OC3)CC[C@]12O | IC50 | 57 nM
C[C@]12CC[C@H](NC(=O)CO)C[C@H]1CC[C@@H]1[C@@H]2CC[C@]2(C)[C@@H](C3=CC(=O)OC3)CC[C@]12O | IC50 | 62 nM

###

Tested on: influenza A virus (strain A/WSN/33 (H1N1))
run-parameters: read-out: IC50 IAV (Strain WSN/33 (H1N1)), MDCK cells
pIC50: −log10 of the molar value.
attribute-measured: pIC50

smiles-code | assay-value
C[C@]12CC[C@H](NC(=O)CO)C[C@H]1CC[C@@H]1[C@@H]2CC[C@]2(C)[C@@H](C3=CC(=O)OC3)CC[C@]12O | 7.18

###

Tested on: influenza A virus (strain A/WSN/33 (H1N1))
test-method-notes: microbe, parasite or virus in culture
run-parameters: MDCK, 24 h, read-out: IC50 IAV (Strain WSN/33 (H1N1)), MDCK cells
attribute-measured: IC50

molecule | assay-value
C[C@]12CC[C@H](NC(=O)CNCCO)C[C@H]1CC[C@@H]1[C@@H]2CC[C@]2(C)[C@@H](C3=CC(=O)OC3)CC[C@]12O | ~60 nM
C[C@]12CC[C@H](O)C[C@H]1CC[C@@H]1[C@@H]2CC[C@]2(C)[C@@H](C3=CC(=O)OC3)CC[C@]12O [Digitoxigenin, digitoxigenin, reference compound] | 72 nM
C[C@]12CC[C@H](NC(=O)CO)C[C@H]1CC[C@@H]1[C@@H]2CC[C@]2(C)[C@@H](C3=CC(=O)OC3)CC[C@]12O | ~60 nM
